Target under test: TAF1-BD2 (Homo sapiens, UniProt P21675)
Test: TAF1-BD2 TR-FRET Binding Assay
Condition context: read-out: TAF1-BD2 HTRF IC50
pIC50: −log10 of the molar value.
pIC50 values, listed per item

Molecule	pIC50
CCOC(=O)c1c(C)[nH]c2c(=O)n(C)cc(C#CC3(O)CCc4cccnc43)c12 (single isomer, unassigned) [Example 99a]	5.93
Cc1[nH]c2c(=O)n(C)cc(C#CC(C)(O)C3CC3)c2c1C(=O)OC(C)C(C)C (stereo not shown)	7.12
Cc1[nH]c2c(=O)n(C)cc(C#CC(C)(O)C3CC3)c2c1-c1nnco1 (stereo not shown)	7.27
Cc1[nH]c2c(=O)n(C)cc(C#CC(C)(C)O)c2c1C(=O)OCc1ccccn1	7.47

----------
Target under test: TAF1-BD2 (Homo sapiens, UniProt P21675)
Test: TAF1-BD2 TR-FRET Binding Assay
Condition context: read-out: TAF1-BD2 HTRF IC50
Quantity name: IC50 (nM)

Compound	Quantity name	Value reported
Cc1[nH]c2c(=O)n(C)cc(C#CC(O)(c3ccccc3)C(F)(F)F)c2c1C(=O)OC(C)(C)CC#N (centres unmarked) [Example 136]	IC50	36.5
CCOC(=O)c1c(C)[nH]c2c(=O)n(C)cc(C#CC(C)(C)C)c12 [Example 76]	IC50	777
CCOC(=O)c1c(C)[nH]c2c(=O)n(C)cc(C#CC3(O)CCN(C)C3=O)c12 (centres unmarked) [Example 74]	IC50	209
CCOC(=O)c1c(C)[nH]c2c(=O)n(C)cc(C#CC3(O)CC3)c12 [Example 18]	IC50	85.4
Cc1[nH]c2c(=O)n(C)cc(C#CC(C)(C)O)c2c1C(=O)OCC(C)(C)C [Example 150]	IC50	30.4
CCOC(=O)c1c(C)[nH]c2c(=O)n(C)cc(C#Cc3ccccc3F)c12 [Example 59]	IC50	56.2
C=CCCn1cc(C#CC(C)(O)CC#N)c2c(C(=O)OCC)c(C)[nH]c2c1=O (centres unmarked) [Example 72]	IC50	181
Cc1[nH]c2c(=O)n(C)cc(C#CC(C)(O)C3CC3)c2c1-c1nnc(C(C)(C)O)o1 (centres unmarked) [Example 172]	IC50	110

----------
Target under test: TAF1-BD2 (Homo sapiens)
Test: TAF1-BD2 TR-FRET Binding Assay
Condition context: read-out: TAF1-BD2 HTRF IC50
Experimental: IC50 Measurements for Inhibitors Using TAF1-BD2 TR-FRET Binding Assay His/Flag epitope tagged TAF1-BD21504-1635 was cloned, expressed, and purified to homogeneity. TAF1-BD2 binding and inhibition was assessed by monitoring the engagement of a biotinylated small molecule compound 1000 with the target using the TR-FRET assay technology (Perkin-Elmer). […]
pIC50: −log10 of the molar value.
Quantity name: pIC50

Compound	Value reported
Cc1cc([C@](C)(O)C#Cc2cn(C)c(=O)c3[nH]cc(C(=O)OCC(C)C)c23)no1	6.91
Cc1ccccc1COC(=O)c1c(C)[nH]c2c(=O)n(C)cc(C#CC(C)(C)O)c12	7.67
CCOC(=O)c1c(C)[nH]c2c(=O)n(C)cc(C#CC(C)(O)C(C)C)c12 (centres unmarked)	7.08
Cc1[nH]c2c(=O)n(C)cc(C#CC(C)(O)C3CC3)c2c1C1=NC(C(C)C)CO1 (centres unmarked)	6.51
CC(=O)c1c(C)n(C)c2c(=O)[nH]cc(C#CC(C)(C)O)c12 [Example 199b]	4.70
Cc1[nH]c2c(=O)n(C)cc(C#CC(C)(C)O)c2c1C(=O)OCc1ccccc1	7.46
CCOC(=O)c1c(C)[nH]c2c(=O)n(C)cc(C#CC3(O)CCCC3)c12	7.66
Cc1[nH]c2c(=O)n(C)cc(C#CC(C)(O)C3CC3)c2c1C(=O)OCc1cccc2cccnc12 (centres unmarked)	7.46
CCOC(=O)c1c(C)[nH]c2c(=O)n(C)cc(C#CC(C)(O)C3CCOCC3)c12 (centres unmarked)	6.74
CCOC(=O)c1c(C)[nH]c2c(=O)n(C)cc(C#Cc3ccc(OC)cc3)c12	7.42
Cc1[nH]c2c(=O)n(C)cc(C#CC(O)(c3ccccc3)C(F)(F)F)c2c1C(=O)OCc1ccccc1C#N (centres unmarked)	6.46
CCOC(=O)c1c(C)[nH]c2c(=O)n(C)cc(C#CC(O)(c3cccc(-c4ccccc4C)c3)C(F)(F)F)c12 (centres unmarked)	6.04
CCOC(=O)c1c(C)[nH]c2c(=O)n(C)cc(C#Cc3cccc(O)c3)c12	7.41
CCCCC(C)(C)OC(=O)c1c(C)[nH]c2c(=O)n(C)cc(C#CC(C)(C)O)c12	7.36
CCOC(=O)c1c(C)[nH]c2c(=O)n(C)cc(C#Cc3ccccc3OC(F)(F)F)c12	7.22
CCOC(=O)c1c(C)[nH]c2c(=O)n(C)cc(C#CC(O)(c3cccc(N)c3)C(F)(F)F)c12 (centres unmarked)	7.34
CC(=O)c1c(C)[nH]c2c(=O)n(C)cc(C#CC(C)(C)O)c12 [Example 199a]	6.89

----------
Target under test: TAF1-BD1 (Homo sapiens)
Test: TAF1-BD1 TR-FRET Binding Assay
Condition context: read-out: TAF1-BD1 HTRF IC50
Catalogue of molecules with associated IC50
Quantity name: IC50 (nM)

Molecule	Censoring operator	Value reported
CCOC(=O)c1c(C)[nH]c2c(=O)n(C)cc(C#C[C@@H]3CCCC[C@H]3O)c12 (stereo in doubt)	=	2000
Cc1[nH]c2c(=O)n(C)cc(C#CC(C)(C)O)c2c1C(=O)OCc1ccccc1C(F)(F)F	=	105
CCOC(=O)c1c(C)[nH]c2c(=O)n(C)cc(C#C[C@@](C)(O)c3nnc(C)o3)c12	=	502
CCC(C)(C)OC(=O)c1c(C)[nH]c2c(=O)n(C)cc(C#C[C@@](C)(O)c3cc(C)on3)c12	=	232
Cc1[nH]c2c(=O)n(C)cc(C#CC(O)(c3ccccc3)C(F)(F)F)c2c1C(=O)OCCC#N (stereo not shown)	=	214
Cc1[nH]c2c(=O)n(C)cc(C#CC(C)(C)O)c2c1C(=O)NC(C)C	=	5310
CCOC(=O)c1c(C)[nH]c2c(=O)n(C)cc(C#Cc3ccccc3)c12	=	457
CCOC(=O)c1c(C)[nH]c2c(=O)n(C)cc(C#CC(C)(O)C3CC3)c12 (single isomer, unassigned) [Example 92a]	=	154
Cc1[nH]c2c(=O)n(C)cc(C#CC(O)(c3ccccc3)C(F)(F)F)c2c1-c1nnc(CO)o1 (stereo not shown)	=	334
Cc1[nH]c2c(=O)n(C)cc(C#CC(O)(c3ccccc3)C(F)(F)F)c2c1C(=O)OC(C)c1ccccc1 (stereo not shown)	=	3210
COc1ccccc1COC(=O)c1c(C)[nH]c2c(=O)n(C)cc(C#CC(C)(C)O)c12	=	123
Cc1cc([C@](C)(O)C#Cc2cn(C)c(=O)c3[nH]c(C)c(C(=O)OCC(C)C)c23)no1	=	112
Cc1[nH]c2c(=O)n(C)cc(C#CC(C)(C)O)c2c1C(=O)OC(C)(C)CC#N	=	283
C=CCCn1cc(C#CC(C)(O)CC#N)c2c(C(=O)OCC)c(C)[nH]c2c1=O (stereo not shown)	>	20000
CCOC(=O)c1c(C)[nH]c2c(=O)n(C)cc(C#CC(C)(C)O)c12	=	616
Cc1[nH]c2c(=O)n(C)cc(C#CC(C)(O)C3CC3)c2c1-c1nnc(C(C)(C)C)o1 (stereo not shown) [Example 187]	=	216
CCOC(=O)c1c(C)[nH]c2c(=O)n(C)cc(C#CC(C)(O)COc3ccccc3)c12 (stereo not shown)	=	404
Cc1[nH]c2c(=O)n(C)cc(C#CC(C)(O)C3CC3)c2c1C(=O)OC(C)C(C)C (stereo not shown)	=	244
CCOC(=O)c1c(C)[nH]c2c(=O)n(C)cc(C#CC(O)(c3cccnc3)C(F)(F)F)c12 (stereo not shown)	=	312
Cc1[nH]c2c(=O)n(C)cc(C#CC(C)(C)O)c2c1C(=O)OCc1ccccc1F	=	145
Cc1[nH]c2c(=O)n(C)cc(C#CC(C)(O)C3CC3)c2c1C(=O)OCc1cccc2cccnc12 (stereo not shown)	=	93.9
CCOC(=O)c1c(C)[nH]c2c(=O)n(C)cc(C#CC(O)(c3cccc(N4CCOCC4)c3)C(F)(F)F)c12 (stereo not shown)	=	438
Cc1[nH]c2c(=O)n(C)cc(C#CC(C)(O)C3CC3)c2c1-c1nnc(CC(C)C)o1 (stereo not shown)	=	137
Cc1[nH]c2c(=O)n(C)cc(C#CC(C)(C)O)c2c1C(=O)OCc1ccncc1	=	4620
CC(=O)c1c(C)[nH]c2c(=O)n(C)cc(C#CC(C)(C)O)c12 [Example 199a]	=	1300
CCOC(=O)c1c(C)[nH]c2c(=O)n(C)cc(C#CC3(O)CC3)c12	=	632
Cc1nnc(-c2c(C)[nH]c3c(=O)n(C)cc(C#CC(C)(O)C4CC4)c23)o1 (stereo not shown)	=	335
CCOC(=O)c1c(C)[nH]c2c(=O)n(C)cc(C#C[C@@](C)(O)c3cc(C)no3)c12	=	210
CCOC(=O)c1c(C)[nH]c2c(=O)n(C)cc(C#CC(O)(c3cccc(C(N)=O)c3)C(F)(F)F)c12 (stereo not shown)	=	185
Cc1[nH]c2c(=O)n(C)cc(C#CC(O)(c3ccccc3)C(F)(F)F)c2c1-c1nnc(C(C)(C)C)o1 (stereo not shown)	=	385
CCOC(=O)c1c(C)[nH]c2c(=O)n(C)cc(C#CC(C)(C)C(=O)N(C)C)c12	=	1310
